System: glycogen synthase kinase-3 (GSK3A per assay name; protocol says GSK3B)
protocol_description: compounds binding glycogen synthase kinase-3 – biochemical, small-molecule microarray, 635 nm fluorescence, GSK3A, primary screen (AID 1103); note: the record names both GSK3A and GSK3B
conditions_used: fluorescence 635 nm, higher = more signal
Provide the reported composite z-score of each item.
Give a plain numeric answer without units written out.

Prompt: Look up and report measured composite z-score (glycogen synthase kinase-3 (GSK3A per assay name; protocol says GSK3B)) for the following compound: `C=CC[C@H](OC(=O)Nc1ccc(SC)cc1)c1ccc(O)c2ccccc12`
Completion: 1.29

Prompt: Look up and report measured composite z-score (glycogen synthase kinase-3 (GSK3A per assay name; protocol says GSK3B)) for the following compound: `CCCC=C(CCC)[C@@H](NP(=O)(c1ccccc1)c1ccccc1)c1ccc(-c2ccccc2)cc1`
Completion: 1.27

Prompt: Look up and report measured composite z-score (glycogen synthase kinase-3 (GSK3A per assay name; protocol says GSK3B)) for the following compound: C=CCC(OC(C)=O)[C@@H]1[C@@H](N(Cc2cc3ccccc3o2)C(=O)Cc2ccc(F)cc2)c2cc(OCCCO)ccc2N1C(=O)Cc1ccc2ccccc2c1 (stereo partly specified)
Completion: -0.657

Prompt: Look up and report measured composite z-score (glycogen synthase kinase-3 (GSK3A per assay name; protocol says GSK3B)) for the following compound: `COCCOC(=O)N1C(=O)[C@@]2(c3ccccc31)[C@H](c1ccc(O)cc1)N1[C@H](c3ccccc3)[C@H](c3ccccc3)OC(=O)[C@H]1[C@@H]2C(=O)N1CCN(c2ncccn2)CC1`
Completion: 1.11

Prompt: Look up and report measured composite z-score (glycogen synthase kinase-3 (GSK3A per assay name; protocol says GSK3B)) for the following compound: `CC(C)NC(=O)[C@@]1(C)c2ccccc2C(=O)N(Cc2ccc(OC(F)(F)F)cc2)[C@H]1c1ccc(CO)cc1`
Completion: -0.85

Prompt: Look up and report measured composite z-score (glycogen synthase kinase-3 (GSK3A per assay name; protocol says GSK3B)) for the following compound: `O=C1O[C@H](c2ccccc2)[C@H](c2ccccc2)N2[C@H]1[C@@H](C(=O)O)[C@]1(C(=O)Nc3ccc(C#CCCO)cc31)[C@H]2c1ccccc1OCCO`
Completion: -0.532

Prompt: Look up and report measured composite z-score (glycogen synthase kinase-3 (GSK3A per assay name; protocol says GSK3B)) for the following compound: CCCCCN1CC=CC23O[C@@H]4/C=C\CCCOC(=O)C4[C@H]2C(=O)N(C(C)CO)[C@@H]3C1=O (stereo partly specified)
Completion: -1

Prompt: Look up and report measured composite z-score (glycogen synthase kinase-3 (GSK3A per assay name; protocol says GSK3B)) for the following compound: `[N-]=[N+]=Nc1ccccc1C[C@@]1(C(=O)N2CCOCC2)N=C(c2ccc(OCCCO)cc2)O[C@@H]1c1ccccc1`
Completion: 1.31

Prompt: Look up and report measured composite z-score (glycogen synthase kinase-3 (GSK3A per assay name; protocol says GSK3B)) for the following compound: COc1cc2c(cc1O)C(c1cccs1)N(Cc1cc3c(cc1Br)OCO3)CC2 (stereo unspecified)
Completion: 1.32

Prompt: Look up and report measured composite z-score (glycogen synthase kinase-3 (GSK3A per assay name; protocol says GSK3B)) for the following compound: `CN(C)C(=O)[C@]1(CCC(=O)OC(C)(C)C)N=C(c2ccc(OCCCO)cc2)O[C@@H]1c1ccccc1CN=[N+]=[N-]`
Completion: 0.7

Prompt: Look up and report measured composite z-score (glycogen synthase kinase-3 (GSK3A per assay name; protocol says GSK3B)) for the following compound: `COc1ccc([C@H]2OC[C@@H]3C[C@H](Cc4ccccc4)C(=O)N32)cc1`
Completion: -0.0107

Prompt: Look up and report measured composite z-score (glycogen synthase kinase-3 (GSK3A per assay name; protocol says GSK3B)) for the following compound: CCCC1(C(=O)OC)C=C2C(=C(C)C(=O)C2C)CN1 (stereo unspecified)
Completion: -0.636

Prompt: Look up and report measured composite z-score (glycogen synthase kinase-3 (GSK3A per assay name; protocol says GSK3B)) for the following compound: O=C1OCCC/C=C\[C@H]2OC34C=CCN(c5ccc6ccccc6c5)C(=O)[C@H]3N(CCO)C(=O)[C@@H]4C12 (stereo partly specified)
Completion: -0.785

Prompt: Look up and report measured composite z-score (glycogen synthase kinase-3 (GSK3A per assay name; protocol says GSK3B)) for the following compound: CCCCC[C@H]1OC[C@@]23C=C(Br)[C@@H](CC12)[C@@]1(CO1)C3=O (stereo partly specified)
Completion: -0.0067

Prompt: Look up and report measured composite z-score (glycogen synthase kinase-3 (GSK3A per assay name; protocol says GSK3B)) for the following compound: O=C1C2C=CC(C(O)C3CC=CCC3)N(Nc3ccccc3)C2C(=O)N1c1ccccc1 (stereo unspecified)
Completion: 0.466

Prompt: Look up and report measured composite z-score (glycogen synthase kinase-3 (GSK3A per assay name; protocol says GSK3B)) for the following compound: `CN(C)CCCCCCNC(=O)[C@@H]1C[C@@H]2C(=O)N3CCC[C@H]3C(=O)N2[C@@H]1c1cccc(OCCO)c1`
Completion: 1.33

Prompt: Look up and report measured composite z-score (glycogen synthase kinase-3 (GSK3A per assay name; protocol says GSK3B)) for the following compound: `COc1cccc(C)c1NC(=O)O[C@H]1[C@H](OC(=O)Nc2ccc3c(c2)OCO3)[C@@H](OC(=O)Nc2ccc3c(c2)OCO3)[C@@H](OC)O[C@@H]1CO`
Completion: 1.35

Prompt: Look up and report measured composite z-score (glycogen synthase kinase-3 (GSK3A per assay name; protocol says GSK3B)) for the following compound: `CC(C)N1C(=O)C[C@@](C(=O)O)(c2ccc([N+](=O)[O-])cc2)[C@H]1c1ccc(CO)cc1`
Completion: -0.381

Prompt: Look up and report measured composite z-score (glycogen synthase kinase-3 (GSK3A per assay name; protocol says GSK3B)) for the following compound: `CCCN1C(=O)[C@@]2(Cc3ccccc31)N=C(c1ccc(OCCCO)cc1)O[C@H]2c1ccccc1`
Completion: 1.23

Prompt: Look up and report measured composite z-score (glycogen synthase kinase-3 (GSK3A per assay name; protocol says GSK3B)) for the following compound: `O=C(c1ccccc1)N1C(=O)[C@]2(Cc3ccccc31)N=C(c1ccc(OCCCO)cc1)O[C@@H]2c1ccccc1`
Completion: 1.31

Prompt: Look up and report measured composite z-score (glycogen synthase kinase-3 (GSK3A per assay name; protocol says GSK3B)) for the following compound: CC(=O)N1CC2(CC2)CC1c1ccccc1 (stereo unspecified)
Completion: 0.152

Prompt: Look up and report measured composite z-score (glycogen synthase kinase-3 (GSK3A per assay name; protocol says GSK3B)) for the following compound: `CCOC(=O)C[C@H]1[C@H](OC(=O)c2ccc(C(=O)c3ccccc3)cc2)[C@@H](NC(=O)c2ccc3ccccc3n2)c2cc(OCCCO)ccc2N1C(=O)Cc1ccc(OC)cc1`
Completion: 0.354

Prompt: Look up and report measured composite z-score (glycogen synthase kinase-3 (GSK3A per assay name; protocol says GSK3B)) for the following compound: `COCCOC(=O)N1C(=O)[C@@]2(c3cc(C#CC4(O)CCCCCC4)ccc31)[C@H](C(=O)Nc1nc3ccccc3s1)[C@H]1C(=O)O[C@H](c3ccccc3)[C@H](c3ccccc3)N1[C@@H]2c1ccc(O)cc1`
Completion: 1.29

Prompt: Look up and report measured composite z-score (glycogen synthase kinase-3 (GSK3A per assay name; protocol says GSK3B)) for the following compound: `CCOC(=O)C1=C[C@@H](C(C)C)N(S(=O)(=O)c2ccc(C)cc2)[C@H]1c1ccc(C(F)(F)F)cc1`
Completion: 0.898

Prompt: Look up and report measured composite z-score (glycogen synthase kinase-3 (GSK3A per assay name; protocol says GSK3B)) for the following compound: CCCCCCCCCCC(O)C1C=CC2C(=O)N(c3ccccc3)C(=O)C2N1Nc1ccc(C#N)cc1 (stereo unspecified)
Completion: 1.02

Prompt: Look up and report measured composite z-score (glycogen synthase kinase-3 (GSK3A per assay name; protocol says GSK3B)) for the following compound: `CCCN1C(=O)[C@]2(Cc3ccccc31)N=C(c1ccc(OCCCO)cc1)O[C@@H]2c1ccccc1`
Completion: 1.26

Prompt: Look up and report measured composite z-score (glycogen synthase kinase-3 (GSK3A per assay name; protocol says GSK3B)) for the following compound: `CCCC[C@@H]1C[C@H]1[C@@H](NC(=O)c1cccs1)c1ccccc1C(F)(F)F`
Completion: 1.23

Prompt: Look up and report measured composite z-score (glycogen synthase kinase-3 (GSK3A per assay name; protocol says GSK3B)) for the following compound: `C=C[C@H]1C(C(=O)OCC)=CC[C@@H](c2ccccc2)N1S(=O)(=O)c1ccc(C)cc1`
Completion: 1.3

Prompt: Look up and report measured composite z-score (glycogen synthase kinase-3 (GSK3A per assay name; protocol says GSK3B)) for the following compound: CC(C)c1ccc(NN2C(C(O)c3ccc(C#N)cc3)C=CC3C(=O)N(c4ccccc4)C(=O)C32)cc1 (stereo unspecified)
Completion: 0.888

Prompt: Look up and report measured composite z-score (glycogen synthase kinase-3 (GSK3A per assay name; protocol says GSK3B)) for the following compound: `CCCC[C@@H](O)C1=C(COc2ccccc2)C[C@H]2C(=O)N(Cc3ccccc3)C(=O)[C@H]2[C@H]1CO`
Completion: -0.0802

Prompt: Look up and report measured composite z-score (glycogen synthase kinase-3 (GSK3A per assay name; protocol says GSK3B)) for the following compound: `CCCCCCc1nc(Cc2cc(OC)c(OC)c(OC)c2)cc2c1[Si](C(C)C)(C(C)C)OC2`
Completion: -0.195
